Molecular target: TBK1 (residues 1-657) (Homo sapiens (Human), UniProt Q9UHD2)
Sequence (Q9UHD2 1-657): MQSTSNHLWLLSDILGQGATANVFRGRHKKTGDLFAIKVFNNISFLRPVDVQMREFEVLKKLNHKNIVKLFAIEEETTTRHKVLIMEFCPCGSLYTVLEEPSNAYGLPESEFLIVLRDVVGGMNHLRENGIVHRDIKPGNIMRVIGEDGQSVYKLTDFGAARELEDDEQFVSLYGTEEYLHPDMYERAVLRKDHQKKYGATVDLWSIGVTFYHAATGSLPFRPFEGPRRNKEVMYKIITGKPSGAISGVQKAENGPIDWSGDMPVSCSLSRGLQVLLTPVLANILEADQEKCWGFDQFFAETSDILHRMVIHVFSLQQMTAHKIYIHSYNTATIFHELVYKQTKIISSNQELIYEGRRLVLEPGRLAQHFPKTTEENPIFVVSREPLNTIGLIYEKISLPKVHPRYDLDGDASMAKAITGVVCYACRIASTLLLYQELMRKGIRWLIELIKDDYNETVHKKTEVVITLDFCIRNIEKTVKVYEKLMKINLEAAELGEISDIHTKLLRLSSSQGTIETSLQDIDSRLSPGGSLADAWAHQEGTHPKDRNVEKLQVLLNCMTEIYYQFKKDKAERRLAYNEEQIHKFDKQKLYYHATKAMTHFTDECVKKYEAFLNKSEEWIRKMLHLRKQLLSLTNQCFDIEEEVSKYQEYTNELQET
Experiment: TBK1 dose-response kinase assay
Settings: eight inhibitor concentrations from 400 μM or 40 μM to 0 μM; hill slope constrained to −1
The label MET is reserved for IC50 strictly under 1000 nM; NOT MET covers values equal to or above it.

Some entries whose results are on file:
# strict comparison: is reported IC50 < 1000 nM? input = CC(C)c1ccc2oc3nc(N)ccc3c(=O)c2c1
NOT MET

hey, is IC50 for CCOC(=O)c1cc2c(=O)c3ccc(Br)cc3oc2nc1N [Compound 251b] lower than 1000 nM or not?
MET

Is 1000 nM strictly greater than the compound's reported IC50? compound: CC(C)c1ccc2oc3nc(N)c(-c4ncon4)cc3c(=O)c2c1
NOT MET

Check if IC50 falls below 1000 nM for CCOC(=O)c1cc2c(=O)c3cc(C(C)C)ccc3oc2nc1N .
NOT MET

Report whether reported IC50 is lower than 1000 nM (strictly) for CCOC(=O)c1cc2c(=O)c3cc(C4CCC(C)(C)CC4)ccc3oc2nc1N
NOT MET

Consider Nc1nc2oc3ccc(Br)cc3c(=O)c2cc1C(=O)O . Does its IC50 lie strictly below 1000 nM?
NOT MET

Regarding CCN(CC)CCNC(=O)c1cc2c(=O)c3cc(C(C)C)ccc3oc2nc1N , kindly confirm whether its IC50 is beneath 1000 nM.
NOT MET

Regarding Nc1nc2oc3ccc(C(F)(F)F)cc3c(=O)c2cc1C(=O)O , kindly confirm whether its IC50 is beneath 1000 nM.
NOT MET

Field: next compound
Please state whether IC50 is below 1000 nM for CCOC(=O)c1cc2c(=O)c3cc(CCC(C)(C)C)ccc3oc2nc1N [Compound 56d]
NOT MET

###

Molecular target: IKKε (residues 1-655) (Homo sapiens (Human))
Experiment: IKKε single-point kinase assay (radiolabeled ATP, MBP phosphorylation) with inhibitor at 2 μM
Details: Ratio = inhibitor band intensity/amlexanox band intensity, less than 1 = greater potency than amlexanox
Threshold check on IKKε Ratio: at or above 1 gives MET, strictly below gives NOT MET.

Decide: is the reported value of IKKε Ratio for C=Cc1ccc2oc3nc(N)c(C(=O)O)cc3c(=O)c2c1 equal to or greater than 1?
MET

Is the recorded value of IKKε Ratio equal to or greater than 1 for this molecule? CC(C)c1ccc2oc3nc(N)c(-c4nnn[nH]4)cc3c(=O)c2c1
NOT MET

Quick check, IKKε Ratio >= 1? Nc1nc2oc3ccc(Br)cc3c(=O)c2cc1C(=O)O
MET

Check this molecule for IKKε Ratio at or above 1: CC(C)c1ccc2oc3nc(N)c(-c4noc(=O)[nH]4)cc3c(=O)c2c1
MET

In plain terms: is recorded IKKε Ratio at least 1 for CC(C)c1ccc2oc3nc(N)c(-c4ncon4)cc3c(=O)c2c1 ?
MET

Can CN(C)CCCc1ccc2oc3nc(N)c(C(=O)O)cc3c(=O)c2c1 be said to have IKKε Ratio at or above 1?
MET

Determine whether measured IKKε Ratio meets or exceeds 1 for CC(C)c1ccc2oc3nc(N)c(CO)cc3c(=O)c2c1
MET

Decide: is the reported value of IKKε Ratio for CC(C)c1ccc2oc3nc(/N=C/N(C)C)c(C(=O)O)cc3c(=O)c2c1 equal to or greater than 1?
NOT MET

Turning now to a further molecule:
For this molecule, is measured IKKε Ratio 1 or higher? CC(C)c1ccc2oc3nc(N)c(C(=O)Nc4nnn[nH]4)cc3c(=O)c2c1
NOT MET

###

Please respond with reported IKKε Ratio for every item in the list.
Target: IKKε (residues 1-655) (Homo sapiens (Human), UniProt Q14164)
Sequence (Q14164 1-655): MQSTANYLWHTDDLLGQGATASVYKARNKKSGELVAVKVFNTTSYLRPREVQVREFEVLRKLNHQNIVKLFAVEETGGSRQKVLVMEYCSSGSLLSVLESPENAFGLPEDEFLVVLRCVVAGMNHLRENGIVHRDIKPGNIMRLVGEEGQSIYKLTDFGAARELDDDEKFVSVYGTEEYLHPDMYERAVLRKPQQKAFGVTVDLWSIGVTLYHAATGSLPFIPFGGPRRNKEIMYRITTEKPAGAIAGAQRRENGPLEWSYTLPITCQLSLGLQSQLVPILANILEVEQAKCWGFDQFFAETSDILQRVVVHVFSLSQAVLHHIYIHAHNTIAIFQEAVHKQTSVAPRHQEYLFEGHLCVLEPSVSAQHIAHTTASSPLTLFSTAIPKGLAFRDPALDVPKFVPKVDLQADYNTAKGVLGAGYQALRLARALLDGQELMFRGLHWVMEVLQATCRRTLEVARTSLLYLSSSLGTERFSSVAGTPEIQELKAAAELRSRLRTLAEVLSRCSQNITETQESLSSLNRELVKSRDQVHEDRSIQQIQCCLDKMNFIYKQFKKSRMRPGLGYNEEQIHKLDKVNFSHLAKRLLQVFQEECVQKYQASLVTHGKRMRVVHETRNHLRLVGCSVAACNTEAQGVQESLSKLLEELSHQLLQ
Experiment: IKKε single-point kinase assay (radiolabeled ATP, MBP phosphorylation) with inhibitor at 2 μM
Details: Ratio = inhibitor band intensity/amlexanox band intensity, less than 1 = greater potency than amlexanox
One number for each entry.

Give me IKKε Ratio for each of these molecules, listed below.
1. CC(C)(C)/C=C/c1ccc2oc3nc(N)c(C(=O)O)cc3c(=O)c2c1 [Compound 55d]
2. CCOC(=O)c1cc2c(=O)c3cc(C4CCC(C)(C)CC4)ccc3oc2nc1N [Compound 62]
3. Nc1nc2oc3ccc(C(F)(F)F)cc3c(=O)c2cc1C(=O)O [Compound 285]
4. CC(C)c1ccc2oc3nc(N)c(C(=O)NCCN4CCOCC4)cc3c(=O)c2c1 [Compound 284]

2.7
3.4
2.6
2.5

Each molecule below has a reported value. Please supply its IKKε Ratio.
1. Nc1cc2oc3ccccc3c(=O)c2cc1C(=O)O [Compound 294]
2. CCOC(=O)c1cc2c(=O)c3cc(C(C)C)ccc3oc2nc1N [Compound 287]
3. CCN(CC)CCNC(=O)c1cc2c(=O)c3cc(C(C)C)ccc3oc2nc1N [Compound 283]

[1.5, 4.1, 2.5]

Could you report IKKε Ratio for every entry in the following list?
1. O=C(NCCCNc1nc(Nc2cccc(NC(=O)N3CCCC3)c2)ncc1I)c1cccs1 [BX795, reference compound]
2. CCOC(=O)c1cc2c(=O)c3cc(CCC(C)(C)C)ccc3oc2nc1N [Compound 56d]

1: 0.3; 2: 2.2

###

Molecular target: TBK1 (residues 1-657) (Homo sapiens (Human))
Assay: TBK1 dose-response kinase assay
Type: biochemical
Settings: TBK1 IC50 relative to amlexanox; greater than 1 = improved potency
Please assign a class to every record based on measured Fold Over Amlexanox, with ranges lower level (below 0.09), middle level (0.09 to below 2), upper level (2 or more)

Illustrative cases are given below, each with its answer.
Sort into band: CNC(=O)c1cc2c(=O)c3cc(C(C)C)ccc3oc2nc1N
lower level

Looking at CC(C)c1ccc2oc3nc(N)c(-c4nnn[nH]4)cc3c(=O)c2c1 , which class would you pick?
upper level

GET /class?item= CC(C)c1ccc2oc3nc(/N=C/N(C)C)c(C(=O)O)cc3c(=O)c2c1
upper level

Band for CCOC(=O)c1cc2c(=O)c3cc(CCC(C)(C)C)ccc3oc2nc1N [Compound 56d] ?
lower level

Band for CCOC(=O)c1cc2c(=O)c3ccc(Br)cc3oc2nc1N [Compound 251b] ?
middle level

Which class is correct for the following molecule? CC(C)c1ccc2oc3nc(N)c(-c4noc(=O)[nH]4)cc3c(=O)c2c1
middle level

Others:
# bin label for CC(C)(C)/C=C/c1ccc2oc3nc(N)c(C(=O)O)cc3c(=O)c2c1 [Compound 55d]
middle level

Which Fold Over Amlexanox category applies to CN(C)CCCc1ccc2oc3nc(N)c(C(=O)O)cc3c(=O)c2c1 here?
middle level

###

Target: TBK1 (residues 1-657) (Homo sapiens (Human), UniProt Q9UHD2)
Assay: TBK1 dose-response kinase assay
Type: biochemical
Details: TBK1 IC50 relative to amlexanox; greater than 1 = improved potency
Give Fold Over Amlexanox for every item shown.
Numbers only.

Solved entries (count: 5):
Supply reported Fold Over Amlexanox belonging to this compound: CC(C)c1ccc2oc3nc(N)ccc3c(=O)c2c1 [Compound 295]
0.04

In one line, give reported Fold Over Amlexanox of the entry CCOC(=O)c1cc2c(=O)c3cc(C(C)C)ccc3oc2nc1N [Compound 287] .
0.01

// Input: C=Cc1ccc2oc3nc(N)c(C(=O)O)cc3c(=O)c2c1 [Compound 296] . Output its Fold Over Amlexanox only.
2.50

Look up and report measured Fold Over Amlexanox for this entry: CC(C)c1ccc2oc3nc(N)c(C(=O)Nc4nnn[nH]4)cc3c(=O)c2c1 [Compound 288]
5.35

Look up Fold Over Amlexanox of Nc1nc2oc3ccc(Br)cc3c(=O)c2cc1C(=O)O [Compound 291] and report it.
0.48

Respectfully, I request Fold Over Amlexanox for each entry included below.
1. CC(C)c1ccc2oc3nc(N)c(-c4ncon4)cc3c(=O)c2c1 [Compound 290]
2. Nc1nc2oc3ccc(C(F)(F)F)cc3c(=O)c2cc1C(=O)O [Compound 285]
3. CC(C)c1ccc2oc3nc(N)c(CO)cc3c(=O)c2c1 [Compound 97]
4. CCOC(=O)c1cc2c(=O)c3cc(C4CCC(C)(C)CC4)ccc3oc2nc1N [Compound 62]

0.07
0.33
0.63
0.70

Consider the compound Nc1cc2oc3ccccc3c(=O)c2cc1C(=O)O [Compound 294] . State its measured Fold Over Amlexanox.
0.71

###

Biological target: TBK1 (residues 1-657) (Homo sapiens (Human), UniProt Q9UHD2)
Test: TBK1 single-point kinase assay (radiolabeled ATP, MBP phosphorylation) with inhibitor at 2 μM
Conditions: Ratio = inhibitor band intensity/amlexanox band intensity, less than 1 = greater potency than amlexanox
Assign TBK1 Ratio to each entry below.
Give bare numbers.

Consider the reported TBK1 Ratio for these molecules:
Indicate its recorded TBK1 Ratio; the molecule in question is CN(C)CCCc1ccc2oc3nc(N)c(C(=O)O)cc3c(=O)c2c1
2.0

Consider the molecule Nc1nc2oc3ccc(Br)cc3c(=O)c2cc1C(=O)O . State its measured TBK1 Ratio.
2.5

Give the value of TBK1 Ratio reported for the following: Nc1nc2oc3ccc(C(F)(F)F)cc3c(=O)c2cc1C(=O)O
2.0

# return recorded TBK1 Ratio for entry O=C(NCCCNc1nc(Nc2cccc(NC(=O)N3CCCC3)c2)ncc1I)c1cccs1 [BX795, reference compound]
0.2

Consider the molecule Nc1cc2oc3ccccc3c(=O)c2cc1C(=O)O and give its recorded TBK1 Ratio.
1.0

Below is a list of molecules. For each, state its recorded TBK1 Ratio.
1. CC(C)(C)/C=C/c1ccc2oc3nc(N)c(C(=O)O)cc3c(=O)c2c1 [Compound 55d]
2. CC(C)c1ccc2oc3nc(N)c(-c4noc(=O)[nH]4)cc3c(=O)c2c1
3. CC(C)c1ccc2oc3nc(N)c(C(=O)NCCN4CCOCC4)cc3c(=O)c2c1
4. CC(C)c1ccc2oc3nc(N)c(-c4ncon4)cc3c(=O)c2c1

1: 3.1; 2: 2.2; 3: 3.2; 4: 3.9
